Where do the numbers come from? From ChEMBL document CHEMBL1123974.

CONDITION_DESCRIPTION: octanol/water
So basically: Log k' w at 2 or higher? That is true (1). Lower than 2? That is false (0).

COMPOUND	GROUP
Nc1ccc(Cl)cc1	false (0)
CC(=O)Nc1ccc(Br)cc1	true (1)
COc1ccc(O)cc1	false (0)
N#Cc1cccc([N+](=O)[O-])c1	false (0)
CCc1cccc(O)c1	true (1)
Oc1ccccc1	false (0)
COc1ccc(N)cc1	false (0)
Oc1cccc(C(F)(F)F)c1	true (1)
O=[N+]([O-])c1ccccc1	false (0)
Oc1ccc(I)cc1	true (1)
Nc1cccc(F)c1	false (0)
Oc1ccc(Cl)cc1	true (1)
Oc1ccc(F)cc1	false (0)
COc1cccc(O)c1 [1-hydroxy-3-methoxybenzene]	false (0)
Oc1cccc(O)c1	false (0)
